The measured values listed here are drawn from patent US20180127503A1.

biological target: T1, human ROR2 expressed on the cell surface (human, UniProt Q01974 34-943); assay: flow cytometry, H345 cells (SCLC); set-up: unit not given here
T1 construct: Endogenous ROR2 of human tumour cell lines; also called cell surface ROR2; ROR2 on tumour cell lines
T1 sequence (Q01974 34-943 limits assumed): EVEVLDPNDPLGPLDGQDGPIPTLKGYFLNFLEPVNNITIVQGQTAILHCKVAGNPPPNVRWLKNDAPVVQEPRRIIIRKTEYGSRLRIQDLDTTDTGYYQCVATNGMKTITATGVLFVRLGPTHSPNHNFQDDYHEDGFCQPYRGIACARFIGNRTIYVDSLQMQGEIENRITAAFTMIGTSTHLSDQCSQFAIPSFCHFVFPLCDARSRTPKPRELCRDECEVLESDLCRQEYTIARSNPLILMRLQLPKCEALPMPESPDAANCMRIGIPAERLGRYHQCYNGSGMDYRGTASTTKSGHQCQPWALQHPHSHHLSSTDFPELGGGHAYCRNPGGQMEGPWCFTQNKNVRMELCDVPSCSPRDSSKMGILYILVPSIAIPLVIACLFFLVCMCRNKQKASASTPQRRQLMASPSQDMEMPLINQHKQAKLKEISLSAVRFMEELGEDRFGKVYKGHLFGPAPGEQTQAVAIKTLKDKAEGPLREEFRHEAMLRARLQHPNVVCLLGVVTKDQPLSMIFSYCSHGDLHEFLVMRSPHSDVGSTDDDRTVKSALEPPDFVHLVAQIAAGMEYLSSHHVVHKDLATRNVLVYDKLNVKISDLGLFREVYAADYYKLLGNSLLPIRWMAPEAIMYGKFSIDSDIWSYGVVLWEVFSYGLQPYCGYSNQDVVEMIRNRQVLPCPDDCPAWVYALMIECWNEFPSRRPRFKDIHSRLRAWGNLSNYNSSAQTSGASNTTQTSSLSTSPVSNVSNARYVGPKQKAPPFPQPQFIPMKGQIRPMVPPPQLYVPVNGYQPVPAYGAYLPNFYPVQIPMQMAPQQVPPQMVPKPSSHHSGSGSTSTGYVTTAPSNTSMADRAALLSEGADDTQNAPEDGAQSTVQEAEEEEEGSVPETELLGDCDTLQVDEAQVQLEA
measured.endpoint: binding intensity
Field format: numeric only.

Query: Consider the binder ROR2-240 full length human IgG1 antibody (antibody, V domains shown, also called clone #240 IgG1) VH: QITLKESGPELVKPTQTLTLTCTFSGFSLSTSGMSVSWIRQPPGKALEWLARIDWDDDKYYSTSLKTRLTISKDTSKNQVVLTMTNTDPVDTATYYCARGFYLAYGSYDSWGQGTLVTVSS VL: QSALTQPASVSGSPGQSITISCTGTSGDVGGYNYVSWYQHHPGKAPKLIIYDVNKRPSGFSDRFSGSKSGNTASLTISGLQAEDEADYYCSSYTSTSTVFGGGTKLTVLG . State its measured binding intensity.
Result: 36

Query: Give the value of binding intensity reported for the following: ROR2-23 full length human IgG1 antibody (antibody, V domains shown, The light chain of clone 023 is labelled kappa; also called clone #23; clone #023 IgG1) VH: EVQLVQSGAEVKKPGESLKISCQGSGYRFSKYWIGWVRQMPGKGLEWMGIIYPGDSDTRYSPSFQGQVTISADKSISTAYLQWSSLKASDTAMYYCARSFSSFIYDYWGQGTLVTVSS VL: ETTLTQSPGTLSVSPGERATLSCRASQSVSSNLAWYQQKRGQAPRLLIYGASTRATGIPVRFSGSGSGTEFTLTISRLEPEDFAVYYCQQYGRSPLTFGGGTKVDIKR
Result: 34

Query: Output binding intensity of ROR2-27 full length human IgG1 antibody (antibody, V domains shown, also called clone #27; clone #027 IgG1) VH: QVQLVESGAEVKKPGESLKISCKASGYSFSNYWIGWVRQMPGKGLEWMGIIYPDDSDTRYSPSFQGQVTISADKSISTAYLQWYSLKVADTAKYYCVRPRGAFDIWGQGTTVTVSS VL: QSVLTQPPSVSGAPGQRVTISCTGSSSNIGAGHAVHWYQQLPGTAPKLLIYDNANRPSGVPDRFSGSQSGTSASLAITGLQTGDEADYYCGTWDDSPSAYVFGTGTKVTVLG
Result: 26

Query: Complete the entry with binding intensity for ROR2-241 full length human IgG1 antibody (antibody, V domains shown) VH: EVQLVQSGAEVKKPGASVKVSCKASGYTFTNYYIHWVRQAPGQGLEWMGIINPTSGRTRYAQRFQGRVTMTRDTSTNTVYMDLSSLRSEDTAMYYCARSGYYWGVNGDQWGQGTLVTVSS VL: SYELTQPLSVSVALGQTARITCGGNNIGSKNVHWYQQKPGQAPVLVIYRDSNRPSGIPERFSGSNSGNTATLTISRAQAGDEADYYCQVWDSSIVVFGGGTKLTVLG
Result: 49
